- Test system: NCI-H23
- Method summary: NCI tumour cell line growth inhibition, 48 h
Active and inactive are the calls of the source. Rule as the data show it: active = GI50 up to about 1.1 µM and inactive = higher.
Endpoint: GI50

System NCI-H23. Read-out GI50. Item COCC1OC(Sc2ccccc2)C(O)C(OC)C1OC (stereo unspecified) . Report value.
> 100 µM (inactive)

Lab note: record GI50 of CN(C)CCNC(=O)c1cccc2ccc(-c3ccncc3)nc12 tested on NCI-H23.
1.8 µM (inactive)

Give GI50 only, for CN(C)CCNc1nc(-c2ccc3ccccc3c2)nc2[nH]cnc12 , using NCI-H23 data.
11.7 µM (inactive)

# lookup: NCI-H23 GI50, key = COC1(OC)CC2C=C(S(=O)(=O)c3ccccc3)C1N(Cc1ccccc1)C2=O (stereo unspecified)
15.2 µM (inactive)

// fetch GI50 for COC(=O)C12CCCN1CCC2 ; system: NCI-H23
> 100 µM (inactive)

Further cases:
Enter GI50 (test system NCI-H23) for COc1ccc(Nc2nc3cc(C(F)(F)F)ccc3n3cccc23)cc1OC
17.6 µM (inactive)

With NCI-H23 as the test system, provide measured GI50 for this compound: NC(Cc1ccccc1)P(=O)(O)O (stereo unspecified)
> 100 µM (inactive)

----------
- Test system: SR
- Method summary: NCI tumour cell line growth inhibition, 48 h
Calls of active or inactive are those of the source. Cut-off read from the data, not from the text of the source: active = GI50 up to about 1.1 µM and inactive = higher. Where a SMILES comes first, the peptide text is derived from it. Bridges are numbered along the chain shown (N, C = ends). The star is where a group is joined. Cbz = O=C(OCc1ccccc1)*
Your reply should match one of these outcome classes. active, inactive

Dear all, I need the recorded test outcome for O=C(O)C1=NN(c2ccc(S(=O)(=O)O)cc2)C2(C1)SCC(=O)N2c1nc2ccccc2s1 (stereo unspecified) , thank you.
inactive

Could you check what this test reported for O=[N+]([O-])c1ccc2c(c1)S(=O)(=O)N1Cc3ccccc3CCN21 ?
inactive

Please indicate how the test categorized NC(=O)NC(=O)c1cccc(NC(=O)CI)c1 .
active

For COC(=O)C1CCCCNC(=O)CCC(NC(=O)OCc2ccccc2)C(=O)N1 (stereo not drawn) (Cbz-Glu-Lys-OMe; lactam 1-2; configuration not given here) , what call appears in the results of this test?
inactive

Would you mind telling me which call this test gave COc1ccc(Nc2nc3cc(C(F)(F)F)ccc3n3cccc23)cc1OC ?
inactive

Continuing:
For Cc1cc2c(SCc3ccccc3Cl)nc(N)nc2nc1C , which call appears in the assay record?
inactive

Which result was noted for this compound in the test: O=c1[nH]nc(Cc2ccccc2)n1CCCl
inactive

Could you check what this test reported for C=CCn1c(S)nnc1C12CC3CC(CC(C3)C1)C2 ?
inactive

----------
- Test system: KM-20L2
- Method summary: NCI tumour cell line growth inhibition, 48 h
Active and inactive are the calls of the source. Rule as the data show it: active = GI50 up to about 1.1 µM and inactive = higher.
Endpoint: GI50

Check out these entries, answers already filled in.
Identify the reported GI50 for the following entry. N=C(N)N/N=C/c1c[nH]c2ccccc12
> 100 µM (inactive)

Look up and state reported GI50 for N=C(N)NNC(=O)CCCCCCCC(=O)NNC(=N)N
> 100 µM (inactive)

Please report GI50 for the following compound: O=C(Cc1nc2ccccc2o1)C(=O)Nc1cccc(C(F)(F)F)c1
> 100 µM (inactive)

Supply GI50 value. Item: CNCCCNc1c2ccccc2nc2cccc([N+](=O)[O-])c12
0.00416 µM (active)

Supply reported GI50 belonging to this compound: N#Cc1c(-c2ccco2)cc(-c2ccccc2)nc1O
> 100 µM (inactive)

Identify measured GI50 associated with CCN(CC)CCNC(=O)C1COc2ccc(-c3cc(=O)c4ccccc4o3)cc2O1 (configuration not stated)
17.5 µM (inactive)

Please give the documented GI50 of COc1cc(-c2cc(=O)c3c(O)c(OC)c(OC)c(OC)c3o2)ccc1O
40.2 µM (inactive)

Look up GI50 of COc1cccc(C(=O)O)c1Cc1cccc2ccccc12 and report it.
> 100 µM (inactive)

Fill in reported GI50 for this entry: CCOc1ccccc1NC(=O)/C=C1\NC(=O)CS1
> 100 µM (inactive)

For the compound CC(C)C(=O)NS(=O)(=O)c1ccccc1 , give its reported GI50.
> 100 µM (inactive)

Continuing:
Tell us which GI50 value is on record for N#C/N=C(/NCCc1c[nH]c2ccccc12)Oc1ccccc1
22.5 µM (inactive)

Fill in reported GI50 for this entry: COc1ccc(C2c3cc4c(cc3OC(O)(CO)C2C(=O)O)OCO4)cc1.COc1ccc(C2c3cc4c(cc3OC3(O)COC(=O)C23)OCO4)cc1 (configuration not stated)
43.2 µM (inactive)

Measured values drawn from ChEMBL document CHEMBL1201862 for this set.
